Assay: Cooperativity factor alpha, ratio of IC50 for His-tagged VHL/Elongin C/Elongin B (unknown origin) to IC50 for His-tagged VHL/Elongin C/Elongin B/KRAS (unknown origin)
Catalogue of compounds with associated Ratio IC50

QUERY: Reported Ratio IC50 for "CCc1cccc2cc(O)cc(-c3ncc4c(N5C[C@H]6CC[C@@H](C5)N6)nc(OC[C@@H]5CCCN5CCCOCCC(=O)N[C@H](C(=O)N5C[C@H](O)C[C@H]5C(=O)N[C@@H](C)c5ccc(-c6scnc6C)cc5)C(C)(C)C)nc4c3F)c12" : what is it?
RESULT: 35.7

QUERY: Then what about the compound "CCc1cccc2cc(O)cc(-c3ncc4c(N5C[C@H]6CC[C@@H](C5)N6)nc(OC[C@@H]5CCCN5CCCCOCC(=O)N[C@H](C(=O)N5C[C@H](O)C[C@H]5C(=O)N[C@@H](C)c5ccc(-c6scnc6C)cc5)C(C)(C)C)nc4c3F)c12" ?
RESULT: 21.5

====

Experiment: MRT (infinity) in BALB/c mouse at 10 mg/kg, sc by LC-MS/MS analysis
Assay type: ADME, organism-based
Conditions: in vivo
value.kind: MRT inf (h)
// note: answer is a bare numeric in h

QUERY: Reported MRT inf for "CCc1c(F)ccc2cc(O)cc(-c3ncc4c(N5C[C@H]6CC[C@@H](C5)N6)nc(OC[C@@H]5CCCN5CCCCOCC(=O)N[C@H](C(=O)N5C[C@H](O)C[C@H]5C(=O)N[C@@H](C)c5ccc(-c6scnc6C)cc5)C(C)(C)C)nc4c3F)c12" : what is it?
RESULT: 9.33

====

Target: von Hippel-Lindau disease tumor suppressor/GTPase KRas (Homo sapiens, UniProt P01116+P40337, G12D)
Sequence (P01116 whole entry G12D, stated change not applied): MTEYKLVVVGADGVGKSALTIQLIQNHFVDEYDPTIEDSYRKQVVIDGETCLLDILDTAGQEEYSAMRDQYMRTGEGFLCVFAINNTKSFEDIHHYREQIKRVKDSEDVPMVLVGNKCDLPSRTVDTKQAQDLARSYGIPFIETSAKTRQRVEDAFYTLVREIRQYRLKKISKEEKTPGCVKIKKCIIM
Sequence (P40337 whole entry, stated change not applied): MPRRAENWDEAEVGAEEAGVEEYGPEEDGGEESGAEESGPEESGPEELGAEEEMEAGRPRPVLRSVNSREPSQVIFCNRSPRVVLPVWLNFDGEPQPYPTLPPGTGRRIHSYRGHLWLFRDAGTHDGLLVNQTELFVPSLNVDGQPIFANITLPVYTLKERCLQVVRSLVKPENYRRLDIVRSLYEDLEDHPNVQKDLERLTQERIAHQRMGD
Assay: PROTAC activity at VHL/KRAS G12D mutant in human ASPC1 cells assessed as induction of protein degradation incubated for 24 hrs by Western blot analysis
Type: cell-based
Conditions: read-out: DC50
Catalogue of molecules with associated log10(DC50)
Plainly stated, the numbers are log10 of DC50 given in nM.

Example entries and their recorded answers appear below.
- smiles.repr: "CCc1cccc2cc(O)cc(-c3ncc4c(N5C[C@H]6CC[C@@H](C5)N6)nc(OC[C@@H]5CCCN5CCCCC(=O)N[C@H](C(=O)N5C[C@H](O)C[C@H]5C(=O)N[C@@H](C)c5ccc(-c6scnc6C)cc5)C(C)(C)C)nc4c3F)c12"
  observed.measurement: 3.00
- smiles.repr: "CCc1cccc2cc(O)cc(-c3ncc4c(N5C[C@H]6CC[C@@H](C5)N6)nc(OC[C@@H]5CCCN5CCC(=O)NCCC(=O)N[C@H](C(=O)N5C[C@H](O)C[C@H]5C(=O)N[C@@H](C)c5ccc(-c6scnc6C)cc5)C(C)(C)C)nc4c3F)c12"
  observed.measurement: 3.58
- smiles.repr: "CCc1cccc2cc(O)cc(-c3ncc4c(N5C[C@H]6CC[C@@H](C5)N6)nc(OC[C@@H]5CCCN5CCOCCC(=O)N[C@H](C(=O)N5C[C@H](O)C[C@H]5C(=O)N[C@@H](C)c5ccc(-c6scnc6C)cc5)C(C)(C)C)nc4c3F)c12"
  observed.measurement: 3.26

QUERY: Reported log10(DC50) for "CCc1cccc2cc(O)cc(-c3ncc4c(N5C[C@H]6CC[C@@H](C5)N6)nc(OC[C@@H]5CCCN5C5CC6(CCN(CC(=O)N[C@H](C(=O)N7C[C@H](O)C[C@H]7C(=O)N[C@@H](C)c7ccc(-c8scnc8C)cc7)C(C)(C)C)CC6)C5)nc4c3F)c12" : what is it?
RESULT: 2.13

QUERY: Then what about the molecule "CCc1c(F)ccc2cc(O)cc(-c3ncc4c(N5C[C@H]6CC[C@@H](C5)N6)nc(OC[C@@H]5C[C@@H](F)CN5CCCCOCC(=O)N[C@H](C(=O)N5C[C@H](O)C[C@H]5C(=O)N[C@@H](C)c5ccc(-c6scnc6C)cc5)C(C)(C)C)nc4c3F)c12" ?
RESULT: 1.94

QUERY: Then what about the molecule "CCc1cccc2cc(O)cc(-c3ncc4c(N5C[C@H]6CC[C@@H](C5)N6)nc(OC[C@@H]5CCCN5CCCCCC(=O)N[C@H](C(=O)N5C[C@H](O)C[C@H]5C(=O)N[C@@H](C)c5ccc(-c6scnc6C)cc5)C(C)(C)C)nc4c3F)c12" ?
RESULT: 3.08

QUERY: Then what about the molecule "C#Cc1c(F)ccc2cc(O)cc(-c3ncc4c(N5C[C@H]6CC[C@@H](C5)N6)nc(OC[C@@H]5CCCN5CCCCOCC(=O)N[C@H](C(=O)N5C[C@H](O)C[C@H]5C(=O)N[C@@H](C)c5ccc(-c6scnc6C)cc5)C(C)(C)C)nc4c3F)c12" ?
RESULT: 2.06

QUERY: Then what about the molecule "CCc1cccc2cc(O)cc(-c3ncc4c(N5C[C@H]6CC[C@@H](C5)N6)nc(OC[C@@H]5CCCN5CCCOCCC(=O)N[C@H](C(=O)N5C[C@H](O)C[C@H]5C(=O)N[C@@H](C)c5ccc(-c6scnc6C)cc5)C(C)(C)C)nc4c3F)c12" ?
RESULT: 2.12

QUERY: Then what about the molecule "CCc1cccc2cc(O)cc(-c3ncc4c(N5C[C@H]6CC[C@@H](C5)N6)nc(OC[C@@H]5CCCN5CCCCCCC(=O)N[C@H](C(=O)N5C[C@H](O)C[C@H]5C(=O)N[C@@H](C)c5ccc(-c6scnc6C)cc5)C(C)(C)C)nc4c3F)c12" ?
RESULT: 2.76

QUERY: Then what about the molecule "CCc1cccc2cc(O)cc(-c3ncc4c(N5C[C@H]6CC[C@@H](C5)N6)nc(OC[C@@H]5CCCN5CCCCOCCC(=O)N[C@H](C(=O)N5C[C@H](O)C[C@H]5C(=O)N[C@@H](C)c5ccc(-c6scnc6C)cc5)C(C)(C)C)nc4c3F)c12" ?
RESULT: 3.12
